- System: Streptococcus sp. 'group A'
- measurementNotes: growth inhibition of control SK(-) GAS strain, dose response, counter-screen for streptokinase expression inhibitor project, luminescence, kanamycin, BacTiterGlo, confirmation (AID 1900)
- Type: functional, organism-based
Activity calls are given as the source filed them.
Reported values of EC50 for individual entries

Solved cases (2 shown):
c1ccc(N=C2N=C(Nc3ccccn3)c3ccccc32)nc1
5.41 µM (active)
O=C(CCC(=O)Nc1ccc(Br)cc1)N/N=C/c1ccccc1O
5.1 µM (active)

Reported EC50 for Streptococcus sp. 'group A', given COc1cccc(C(=O)Nc2nnc(-c3cccs3)o2)c1 ?
9.25 µM (active)

* * *

- target: Ubiquitin-conjugating enzyme E2 N (Homo sapiens)
- Sequence (P61088 whole entry): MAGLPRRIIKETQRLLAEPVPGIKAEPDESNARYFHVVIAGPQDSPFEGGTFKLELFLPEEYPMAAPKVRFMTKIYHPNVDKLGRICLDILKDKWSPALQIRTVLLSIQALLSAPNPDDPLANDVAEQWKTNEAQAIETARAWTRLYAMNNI
- Type: functional
Calls of active or inactive are those of the source.
Quick reference for IC50 among some compounds

Solved entries (count: 3):
CCC(C)(C)c1ccc(OCCCC[n+]2ccccc2)c(C(C)(C)CC)c1
17.3 µM (active)
CCOC(=O)c1c(-c2ccc(-c3ccccc3)cc2)csc1NC(=O)CNCCN(C)C
10.1 µM (active)
CN(C)CCCN(C(=O)c1ccc(C(=O)c2ccccc2)cc1)c1nc2cc3c(cc2s1)OCCO3
3.92 µM (active)

For C#CCOCCOCCOCCNc1nc(N2CCN(C(=O)[C@H](CCCCN)n3cc([C@@H](N)CC(N)=O)nn3)CC2)nc(N2CCN(C(=O)[C@H](CCCCN)n3cc([C@@H](N)CC(N)=O)nn3)CC2)n1 , what is its reported IC50?
12.5 µM (active)

* * *

Reported EC50 values for a set of compounds
- Tested on: Streptococcus sp. 'group A'
- measurementNotes: growth inhibition of control SK(-) GAS strain, dose response, counter-screen for streptokinase expression inhibitor project, luminescence, kanamycin, BacTiterGlo, confirmation (AID 1900)
- Format: functional, organism-based
Activity calls are given as the source filed them.

Below are worked cases with known answers.
CCCCCCCCCCOC(=O)Cn1c(COc2ccccc2)[n+](C)c2ccccc21
6.91 µM (active)
O=c1c(/C=N/c2cc(O)nc(S)n2)coc2c1ccc1ccccc12
0.752 µM (active)
O=C(Nc1ccc(Cl)c(Cl)c1)C1CC(=O)N(c2ccc(Br)cc2)C1 (stereo not given)
5.25 µM (active)
Nc1c(Cl)cc(-c2csc(N3CCCC3c3nc4cc(Cl)c(Cl)cc4n3CCOCCO)n2)cc1Cl (stereo not given)
> 150 µM (not active)

Kindly review the next compound as well.
Notebook: pull reported EC50 for Streptococcus sp. 'group A', entry CC1CCc2c(sc3nc(C(C)(C)C)nc(N4CCN(C(=O)CCl)CC4)c23)C1 (stereo not given)
2.96 µM (active)

* * *

- Tested on: INS1
- measurementNotes: beta cell apoptosis inhibitors, cytokine rescue, dose response, luminescence, retest (AID 449756);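 note: cell death triggered by IL-1 beta plus TNF-alpha plus IFN-gamma mixture; protective hits raise ATP signal compared with cytokine alone wells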
- Format: functional, cell-based
- measurementParameters: Rattus norvegicus
Active and inactive are the calls of the source.
readoutKind: AC50

c1ccc(N=C2N=C(Nc3ccccn3)c3ccccc32)nc1
0.795 µM (active)
CC1CCc2c(sc3nc(C(C)(C)C)nc(N4CCN(C(=O)CCl)CC4)c23)C1 (stereo unspecified)
5.84 µM (active)
CC(CNC(=O)c1ccc(OC2CCN(Cc3ccccn3)CC2)cc1)Oc1cccnc1 (stereo unspecified)
5.59 µM (active)
O=C1C=C(Nc2ccccc2)C(=O)c2ccccc21
3.97 µM (active)
Cn1nnnc1Sc1ncnc2scc(-c3cc4ccccc4o3)c12
6 µM (active)

Could you tell me which AC50 is on file for Cc1[nH]c2ccccc2c1CN1CCC(Cc2ccccc2)CC1 ?
3.46 µM (active)
